Reported values of log10 of solubility kinetic for individual entries
- Test Summary: Kinetic solubility of compound
- Assay type: physicochemical
- Condition Info: read-out: Kinetic_solubility
Answers are given as log10 of solubility kinetic in µM.

Field: example entries. Status: answers known.
[
  {
    "Smiles Structure": "Cc1ccc(CN2CCN(C(=O)C(=O)Nc3ccn4cccc4c3)CC2)cc1",
    "log10 of solubility kinetic": 0.75
  },
  {
    "Smiles Structure": "Cc1ccc(CN2CCN(C(=O)NCc3ccc4c(ccn4C)c3)CC2)cc1",
    "log10 of solubility kinetic": 1.28
  },
  {
    "Smiles Structure": "Cc1ccc(CN2CCN(C(=O)C(=O)Nc3cc(F)c4[nH]ccc4c3)CC2)cc1",
    "log10 of solubility kinetic": 1.63
  },
  {
    "Smiles Structure": "Cc1ccc(Oc2ccc(C(=O)C(=O)Nc3ccc4c(ccn4C)c3)cc2)cc1",
    "log10 of solubility kinetic": 0.30
  },
  {
    "Smiles Structure": "Cc1ccc(CN2CCN(C(=O)C(=O)Nc3ccc4c(ccn4C)c3)CC2)cc1",
    "log10 of solubility kinetic": 1.62
  },
  {
    "Smiles Structure": "Cn1ccc2cc(NC(=O)C(=O)c3cnn(Cc4ccc(Cl)cc4)c3)ccc21",
    "log10 of solubility kinetic": 0.48
  },
  {
    "Smiles Structure": "Cc1ccc(CN2C[C@@H](C)N(C(=O)C(=O)Nc3ccc4[nH]ccc4c3)C[C@@H]2C)cc1",
    "log10 of solubility kinetic": 1.17
  },
  {
    "Smiles Structure": "Cc1ccc(CN2CCN(C(=O)C(=O)Nc3ccc4c(c3)c(Cl)cn4C)CC2)cc1",
    "log10 of solubility kinetic": 0.83
  }
]

### Prompt Please give the documented log10 of solubility kinetic of `Cc1ccc(Oc2ccc(C(=O)C(=O)Nc3ccc4c(ccn4C)c3)cn2)cc1`
### Response 0.48
